# measured_on: AHNAK1, Q09666
# Sequence (Q09666 4-100): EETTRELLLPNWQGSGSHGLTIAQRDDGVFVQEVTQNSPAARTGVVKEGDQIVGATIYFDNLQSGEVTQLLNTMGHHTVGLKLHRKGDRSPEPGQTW
# experimental_protocol: holdup assay
# Set-up: key: below the threshold = too weak to quantify, mostly under pKd 3.1 to 4
# test_settings: plain residues with an end cap or a label only (N-terminal biotin on a linker: ttds)
test_readout: pKd

[[record]]
binder = "VNKVWDQSSV [CIT, O14578]"
test_readout = "pKd"
test_result = "below the threshold"

[[record]]
binder = "DPLTPSRSQL [DGKK, Q5KSL6]"
test_readout = "pKd"
test_result = "below the threshold"

[[record]]
binder = "LCALPKVTTV [AGMAT, Q9BSE5]"
test_readout = "pKd"
test_result = "below the threshold"

[[record]]
binder = "DPRNTQTSQI [ABRAXAS2, Q15018]"
test_readout = "pKd"
test_result = 3.53

